# maps each entry to its normalised response
System: MCF-10A
testSummary: normalised response (% of control), CellTiter-Glo; higher = more viable cells (100 = DMSO, 0 = benzethonium chloride kill control)
conditionContext: incubation time: 72 h
reportedEndpoint: normalised response (%)

compound: O=C(c1ccc(C(=O)N2CCC(N3CCCC3)CC2)c(Nc2ccccc2)c1)N1CCC(N2CCCC2)CC1 [UNC1215] (3000 nM)
targetOfAssay: MCF-10A
reportedEndpoint: normalised response
numericResult: 108
--
compound: CN1CC[C@H](c2c(O)cc(O)c3c(=O)cc(-c4ccccc4Cl)oc23)[C@H](O)C1 [Alvocidib] (10 nM)
targetOfAssay: MCF-10A
reportedEndpoint: normalised response
numericResult: 110
--
compound: N#CC[C@H](C1CCCC1)n1cc(-c2ncnc3[nH]ccc23)cn1 [Ruxolitinib] (10 nM)
targetOfAssay: MCF-10A
reportedEndpoint: normalised response
numericResult: 88.8
--
compound: S=c1[nH]cnc2nc[nH]c12 [Mercaptopurine] (10 nM)
targetOfAssay: MCF-10A
reportedEndpoint: normalised response
numericResult: 103
--
compound: C[C@]1(c2nc3c(C(N)=O)cccc3[nH]2)CCCN1 [Veliparib] (10 nM)
targetOfAssay: MCF-10A
reportedEndpoint: normalised response
numericResult: 105
--
compound: S=c1[nH]cnc2nc[nH]c12 [Mercaptopurine] (1000 nM)
targetOfAssay: MCF-10A
reportedEndpoint: normalised response
numericResult: 94.2
--
compound: COc1cccc2c1C(=O)c1c(O)c3c(c(O)c1C2=O)C[C@@](O)(C(=O)CO)C[C@@H]3O[C@H]1C[C@H](N)[C@H](O)[C@H](C)O1 [Doxorubicin] (100 nM)
targetOfAssay: MCF-10A
reportedEndpoint: normalised response
numericResult: 106

###

System: HCC1937
testSummary: normalised response (% of control), CellTiter-Glo; higher = more viable cells (100 = DMSO, 0 = benzethonium chloride kill control)
conditionContext: incubation time: 72 h
reportedEndpoint: normalised response (%)

compound: CCN1CCN(c2ccc(Nc3cc(N(C)C(=O)Nc4c(Cl)c(OC)cc(OC)c4Cl)ncn3)cc2)CC1 [NVP-BGJ398] (1 nM)
targetOfAssay: HCC1937
reportedEndpoint: normalised response
numericResult: 104
--
compound: CCN1CCN(c2ccc(Nc3cc(N(C)C(=O)Nc4c(Cl)c(OC)cc(OC)c4Cl)ncn3)cc2)CC1 [NVP-BGJ398] (0.1 nM)
targetOfAssay: HCC1937
reportedEndpoint: normalised response
numericResult: 95.6
--
compound: C[C@]1(c2nc3c(C(N)=O)cccc3[nH]2)CCCN1 [Veliparib] (10 nM)
targetOfAssay: HCC1937
reportedEndpoint: normalised response
numericResult: 101
--
compound: N#CC[C@H](C1CCCC1)n1cc(-c2ncnc3[nH]ccc23)cn1 [Ruxolitinib] (1 nM)
targetOfAssay: HCC1937
reportedEndpoint: normalised response
numericResult: 92.8
--
compound: CN(C)C/C=C/C(=O)Nc1cc2c(Nc3ccc(F)c(Cl)c3)ncnc2cc1O[C@H]1CCOC1 [Afatinib] (100 nM)
targetOfAssay: HCC1937
reportedEndpoint: normalised response
numericResult: 89.8
--
compound: COc1cccc2c1C(=O)c1c(O)c3c(c(O)c1C2=O)C[C@@](O)(C(=O)CO)C[C@@H]3O[C@H]1C[C@H](N)[C@H](O)[C@H](C)O1 [Doxorubicin] (1 nM)
targetOfAssay: HCC1937
reportedEndpoint: normalised response
numericResult: 98.6

###

System: Hs578T
testSummary: normalised response (% of control), CellTiter-Glo; higher = more viable cells (100 = DMSO, 0 = benzethonium chloride kill control)
conditionContext: incubation time: 72 h

molecule: N#CC[C@H](C1CCCC1)n1cc(-c2ncnc3[nH]ccc23)cn1 [Ruxolitinib] (10 nM)
targetOfAssay: Hs578T
valueUnits: %
normalised response: 96.2
--
molecule: Cc1ccc(F)c(NC(=O)Nc2ccc(-c3cccc4[nH]nc(N)c34)cc2)c1 [Linifanib] (0.1 nM)
targetOfAssay: Hs578T
valueUnits: %
normalised response: 100
--
molecule: Clc1ccc(C(c2ccccc2Cl)C(Cl)Cl)cc1 (stereo not drawn) [Mitotane] (1 nM)
targetOfAssay: Hs578T
valueUnits: %
normalised response: 102
--
molecule: OC[C@H]1O[C@@H](n2cnc3c2N=CNC[C@H]3O)C[C@@H]1O [Pentostatin] (1000 nM)
targetOfAssay: Hs578T
valueUnits: %
normalised response: 105
--
molecule: CO[C@H]1C[C@@H]2CC[C@@H](C)[C@@](O)(O2)C(=O)C(=O)N2CCCC[C@H]2C(=O)O[C@H]([C@H](C)C[C@@H]2CC[C@@H](OC(=O)C(C)(CO)CO)[C@H](OC)C2)CC(=O)[C@H](C)/C=C(\C)[C@@H](O)[C@@H](OC)C(=O)[C@H](C)C[C@H](C)/C=C/C=C/C=C/1C [Temsirolimus] (0.01 nM)
targetOfAssay: Hs578T
valueUnits: %
normalised response: 96.7
--
molecule: S=c1[nH]cnc2nc[nH]c12 [Mercaptopurine] (1000 nM)
targetOfAssay: Hs578T
valueUnits: %
normalised response: 71.8
--
molecule: CN(C)C/C=C/C(=O)Nc1cc2c(Nc3ccc(F)c(Cl)c3)ncnc2cc1O[C@H]1CCOC1 [Afatinib] (100 nM)
targetOfAssay: Hs578T
valueUnits: %
normalised response: 108
--
molecule: C=CCNC1=C2C[C@@H](C)C[C@H](OC)[C@H](O)[C@@H](C)/C=C(\C)[C@H](OC(N)=O)[C@@H](OC)/C=C\C=C(/C)C(=O)NC(=CC1=O)C2=O [Tanespimycin] (1 nM)
targetOfAssay: Hs578T
valueUnits: %
normalised response: 104

###

Tested on: HDQ-P1
testSummary: normalised response (% of control), CellTox Green; higher = less cell death (100 = DMSO, 0 = benzethonium chloride kill control)
conditionContext: incubation time: 72 h
reportedEndpoint: normalised response (%)

compound: Nc1nc(Cl)nc2c1ncn2[C@H]1C[C@H](O)[C@@H](CO)O1 [Cladribine] (1000 nM)
targetOfAssay: HDQ-P1
reportedEndpoint: normalised response
numericResult: 95.9
//
compound: C=CCNC1=C2C[C@@H](C)C[C@H](OC)[C@H](O)[C@@H](C)/C=C(\C)[C@H](OC(N)=O)[C@@H](OC)/C=C\C=C(/C)C(=O)NC(=CC1=O)C2=O [Tanespimycin] (1000 nM)
targetOfAssay: HDQ-P1
reportedEndpoint: normalised response
numericResult: 60.1
//
compound: C[C@]1(c2nc3c(C(N)=O)cccc3[nH]2)CCCN1 [Veliparib] (10000 nM)
targetOfAssay: HDQ-P1
reportedEndpoint: normalised response
numericResult: 90.5
//
compound: CC[C@]1(O)C[C@@H]2CN(CCc3c([nH]c4ccccc34)[C@@](C(=O)OC)(c3cc4c(cc3OC)N(C)[C@H]3[C@@](O)(C(=O)OC)[C@H](OC(C)=O)[C@]5(CC)C=CCN6CC[C@]43[C@@H]65)C2)C1 [Vinblastine] (1000 nM)
targetOfAssay: HDQ-P1
reportedEndpoint: normalised response
numericResult: 101
//
compound: COc1cccc2c1C(=O)c1c(O)c3c(c(O)c1C2=O)C[C@@](O)(C(=O)CO)C[C@@H]3O[C@H]1C[C@H](N)[C@H](O)[C@H](C)O1 [Doxorubicin] (100 nM)
targetOfAssay: HDQ-P1
reportedEndpoint: normalised response
numericResult: 78.6
//
compound: CN1CCC(COc2cnc(-c3cccc(Cn4nc(-c5cccc(C#N)c5)ccc4=O)c3)nc2)CC1 (100 nM)
targetOfAssay: HDQ-P1
reportedEndpoint: normalised response
numericResult: 103
//
compound: N#CC[C@H](C1CCCC1)n1cc(-c2ncnc3[nH]ccc23)cn1 [Ruxolitinib] (100 nM)
targetOfAssay: HDQ-P1
reportedEndpoint: normalised response
numericResult: 94.4
//
compound: CS(=O)(=O)c1ccc(C(=O)Nc2ccc(Cl)c(-c3ccccn3)c2)c(Cl)c1 [Vismodegib] (100 nM)
targetOfAssay: HDQ-P1
reportedEndpoint: normalised response
numericResult: 108
//
compound: CN1CCC(COc2cnc(-c3cccc(Cn4nc(-c5cccc(C#N)c5)ccc4=O)c3)nc2)CC1 (10 nM)
targetOfAssay: HDQ-P1
reportedEndpoint: normalised response
numericResult: 115

###

# normalised response per entry
Test system: HCC1143
testSummary: normalised response (% of control), CellTiter-Glo; higher = more viable cells (100 = DMSO, 0 = benzethonium chloride kill control)
conditionContext: incubation time: 72 h
reportedEndpoint: normalised response (%)

compound: CC(=O)O[C@]1(C(C)=O)CC[C@H]2[C@@H]3C=C(C)C4=CC(=O)CC[C@]4(C)[C@H]3CC[C@@]21C [Megestrol acetate] (1000 nM)
numericResult: 103
--
compound: C=CCNC1=C2C[C@@H](C)C[C@H](OC)[C@H](O)[C@@H](C)/C=C(\C)[C@H](OC(N)=O)[C@@H](OC)/C=C\C=C(/C)C(=O)NC(=CC1=O)C2=O [Tanespimycin] (1 nM)
numericResult: 95.8
--
compound: CN1CC[C@H](c2c(O)cc(O)c3c(=O)cc(-c4ccccc4Cl)oc23)[C@H](O)C1 [Alvocidib] (1000 nM)
numericResult: 17.1
--
compound: CS(=O)(=O)c1ccc(C(=O)Nc2ccc(Cl)c(-c3ccccn3)c2)c(Cl)c1 [Vismodegib] (10 nM)
numericResult: 93.9
--
compound: Clc1ccc(C(c2ccccc2Cl)C(Cl)Cl)cc1 (stereo not given) [Mitotane] (1000 nM)
numericResult: 94.1
